assay: self-splicing fitness, log relative to wild type (ln ratio); higher = more splicing; Tetrahymena group I intron in knt gene, E. coli kanamycin selection, DiMSum; sequences stand for … in CUCUCU…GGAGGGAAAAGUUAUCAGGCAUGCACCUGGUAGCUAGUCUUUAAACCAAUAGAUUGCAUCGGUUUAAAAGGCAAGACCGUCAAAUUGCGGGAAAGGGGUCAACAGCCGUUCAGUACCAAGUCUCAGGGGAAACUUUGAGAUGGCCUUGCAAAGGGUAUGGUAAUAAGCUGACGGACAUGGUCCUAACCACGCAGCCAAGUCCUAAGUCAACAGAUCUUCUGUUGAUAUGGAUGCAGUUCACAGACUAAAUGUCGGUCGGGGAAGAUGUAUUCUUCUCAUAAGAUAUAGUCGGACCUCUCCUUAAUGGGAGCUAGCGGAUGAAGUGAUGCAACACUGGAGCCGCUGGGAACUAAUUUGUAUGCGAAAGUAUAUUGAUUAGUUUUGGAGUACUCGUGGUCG;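 note: selection with 25 µg/mL kanamycin versus none on LB agar overnight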
conditions: 30 °C
Label t when self-splicing fitness (ln) >= -2; otherwise f.

In [3]: df
Out[3]:
                   chain  class_assignment
 0  CAAAAGCAAUAUUACGAAUG                 t
 1  AACUAGCAAUAUUACGAAGU                 f
 2  CAUGAGCAAUAUUACGCGCG                 t
 3  UGAUAGCAAUAUUACGUUUC                 f
 4  UACGAGCAAUAUUACGCGUU                 t
 5  CAUUAGCAAUAUUACGGCUC                 f
 6  AUCUAGCAAUAUUACGAGUA                 f
 7  GCCCAGCAAUAUUACGUGAG                 t
 8  CAUCAGCAAUAUUACGGUCU                 f
 9  GAGGAGCAAUAUUACGUAGA                 f
10  UGGUAGCAAUAUUACGAAUU                 t
11  AUAUAGCAAUAUUACGUAAG                 t
12  GUAGAGCAAUAUUACGGGCA                 t
13  CGCGAGCAAUAUUACGCGGA                 f
14  CACAAGCAAUAUUACGAAUA                 f
15  CGACAGCAAUAUUACGGAGA                 f
16  ACCGAGCAAUAUUACGAUAG                 f
17  ACGCAGCAAUAUUACGCUGU                 f
18  ACUGAGCAAUAUUACGCCAG                 f
19  AUAUAGCAAUAUUACGGAUA                 f
20  CACCAGCAAUAUUACGAUUC                 f
21  CACCAGCAAUAUUACGUAUG                 t
22  CGUUAGCAAUAUUACGGCCU                 t
23  AGAUAGCAAUAUUACGAUGA                 t
24  AGCUAGCAAUAUUACGACAA                 t
